The values you see were collected from PubChem BioAssay (NCI).

System: SW-620 colon
assay-info: NCI-60 one-dose screen, 48 h
condition-info: 10 µM
The panel holds about 83,000 compounds, 20% with a hit somewhere; the sample as a whole holds those more often. Active and inactive are the calls of the source. The calls were made as follows: active = growth percent below 10; inactive = the rest.
Bench note: report the call from active, inactive

Which outcome was assigned to ClCC#CCSc1ncnc2c1ncn2CC#CCCl in this test?
active

// return assay outcome for O=C1c2ccc3c4c(ccc(c24)C(=O)N1CCNCc1ccccc1)C(=O)N(CCNCc1ccccc1)C3=O
active

Which outcome did this test record for the compound COc1ccc(-c2nn(-c3cccc(NC(=O)c4cc(C(F)(F)F)cc(C(F)(F)F)c4)c3)cc2-c2ccncc2)cc1Cl ?
inactive

Record lookup: outcome of this test for NC(=O)c1ccc(-c2cccc3c(=O)nc(N4CCOCC4)oc23)cc1 ?
inactive

Please share the test call associated with COc1ccc(-c2nn(-c3cccc(NC(=O)Nc4ccccc4)c3)cc2-c2ccncc2)cc1Cl .
active

Recorded test call requested for OCC1OC(n2cnc3c(N/N=C\c4ccccn4)ncnc32)C(O)C1O (configuration not stated)
inactive

What is the recorded call for this compound in the test? C/C(N)=C(\C#N)C(=O)c1ccccc1
inactive

Tell me the recorded outcome of this test for CN(C)CCOc1nc2ccccc2c2c1-c1ccc(Cl)cc1C2=O .
active

// outcome(item) with item = CCOC(=O)C1CCc2c(ccc3ccccc23)N1CCC#N (configuration not stated)
inactive

Recorded test outcome, item CCN1Cc2c(/C=C/c3ccccc3)nc3ccc(OC)cc3c2N(c2cccc(Cl)c2)C1
inactive

Please state the recorded outcome for this compound: Cc1cc(=O)[nH]c(N/N=C/c2ccccc2O)n1
inactive

Test call, this compound: COc1cc(C(=O)N2CCN(c3ccccc3OC)CC2)c(N)cc1OCCCN1CCN(c2ccccc2OC)CC1
inactive

Which outcome was assigned to Cc1cc2ccccc2nc1-c1ccccc1F in this test?
inactive

Lab log entry: O=C(N/N=C\c1cc(Cl)ccc1[N+](=O)[O-])c1ccco1 — outcome as called in the assay?
inactive

How did this test come out for Cc1ncc(-c2ccoc2)c(NC2CCCCCC2)n1 ?
inactive

Recorded call for N=C(N)c1ccc(-c2ccc(-c3cccs3)s2)s1 ?
active

Answer briefly: the call reported for COc1cc(C(=O)/C=C/c2cc(-c3cc(OC)c(OC)c(OC)c3)n[nH]2)cc(OC)c1OC in this assay.
active

What classification did c1ccc(C(NC2CC3CCC2C3)c2ccccc2)cc1 (configuration not stated) end up with in this test?
inactive

What did the test return for COc1cc2nc(Nc3cccc(C(=O)O)c3)nc(N)c2cc1OC ?
inactive

Write down the call the test reported for this compound. Item: O=C(Nc1cccc(-n2cc(-c3ccncc3)c(-c3ccc(O)c(Cl)c3)n2)c1)c1cc(C(F)(F)F)cc(C(F)(F)F)c1
inactive

Short answer needed: outcome of this test for CC1(C)N=C(N)N=C(N)N1c1ccc(CCc2ccccc2)c(Cl)c1 ?
inactive

How was COc1ccc2nc3cc(Cl)ccc3c(NCCNCC(C)O)c2c1 (configuration not stated) classified in this test?
inactive
